Numbers sourced from PubChem BioAssay (NCI).

Test system: OVCAR-3 ovarian
Assay: NCI-60 one-dose screen, 48 h (100 = growth as untreated, 0 = no growth, -100 = all killed)
Conditions: 10 µM unless noted
About 83,000 compounds went through this panel and 20% of them were active in at least one assay; those are over-represented in the sample as a whole.
// classify: if (growth < 30%) Criterion met else Criterion not met

These solved cases illustrate the format of a correct answer.
- CCOC(=O)c1c2c(n3cccc(Cl)c13)C(=O)c1ncccc1C2=O: Criterion met
- CCn1c(-c2nonc2Nc2ccc(OC)cc2)nc2ccccc21: Criterion not met
- CCCCCCc1cc2cc(-c3nc4ccccc4[nH]3)c(=Nc3ccccc3C)oc2cc1O: Criterion not met
- COc1ccc(-c2cn[nH]c2-c2cc(OC)c(OC)c(OC)c2)cc1OCc1ccccc1: Criterion met
- CCN(CC)CCNC(=O)C(Cl)=C1C(Cl)=C(Cl)C(Cl)=C1Cl: Criterion not met
- O=C1C(=O)c2c(ccc3ccccc23)-c2ccccc21: Criterion met
- COc1cccc2cc(N(C)c3nc(C)nc4ccsc34)ccc12: Criterion met
- COc1cc(NC(=O)CCSc2nc3ccccc3c(=O)n2CCc2ccccn2)cc(OC)c1OC: Criterion not met
- O=C(Nc1ccccc1O)c1ccc(Oc2cccc(C(=O)Nc3ccccc3O)c2)cc1: Criterion met
- CCOC(=O)c1sc(-c2ccc(OS(=O)(=O)c3ccc(Br)s3)c(C=O)c2)nc1C: Criterion met

Answer whether the compound `CCCCN1CCN(c2ccc3nc(-c4ccc5nc(-c6ccc(OC)c(OC)c6)[nH]c5c4)[nH]c3c2)CC1` has growth strictly less than 30%
Criterion met

Answer whether the compound COc1ccc(-c2nsc3c2NC(=O)CC3c2ccsc2)cc1 (stereo not given) has growth strictly less than 30%
Criterion met

Answer whether the compound `CC(=O)c1ccc(Cc2ccc(C(C)=O)s2)s1` has growth strictly less than 30%
Criterion not met

Answer whether the compound Cc1nn(-c2nc3ccccc3[nH]2)c2c1C(c1ccc(OCC(N)=O)cc1)CC(=O)N2 (stereo not given) has growth strictly less than 30%
Criterion not met

Answer whether the compound `O=C(O)CCC(=O)c1ccc(C2CCCCCC2)cc1` has growth strictly less than 30%
Criterion not met

Answer whether the compound `N#C/C(=C\c1c(-c2ccccc2)[nH]c2ccccc12)C(=O)c1ccccc1` has growth strictly less than 30%
Criterion met

Answer whether the compound `COc1ccc2occ(C3=C(c4c[nH]c5ccccc45)C(=O)NC3=O)c2c1` has growth strictly less than 30%
Criterion met

Answer whether the compound `CCOc1ccc(Nc2ccnc3cc(Cl)ccc23)cc1` has growth strictly less than 30%
Criterion met

Answer whether the compound S=C1NC2(c3ccccc3)CCC(=S)N2c2ccccc21 (stereo not given) has growth strictly less than 30%
Criterion not met

Answer whether the compound `Nc1nc2c(ncn2[C@@H]2O[C@H](CS)[C@@H](O)[C@H]2O)c(=O)[nH]1` has growth strictly less than 30%
Criterion not met
